target: T-type calcium channel (Homo sapiens); assay: T-type channel blocking, FLIPR data (Table 6); format: cell-based; conditions: CAv3.2, ratio closed/inactivated IC50
value kind: CAv3.2 IC50 Ratio closed/inact.
Please give only the number in your answer, with no unit.

Quick one: CAv3.2 IC50 Ratio closed/inact. of CC(C)(C1CC(CNC(=O)c2cc(C(F)(F)F)n[nH]2)C1)S(=O)(=O)c1cccc(C(F)(F)F)c1 (stereo not shown) ?
2.3

Quick one: CAv3.2 IC50 Ratio closed/inact. of "Cn1nc(C(F)(F)F)cc1C(=O)N[C@H]1C[C@H](CC(C)(C)S(=O)(=O)c2cccc(C(F)(F)F)c2)C1" ?
3.4

Quick one: CAv3.2 IC50 Ratio closed/inact. of "CC(C)([C@H]1C[C@@H](NS(=O)(=O)c2ccc(C(F)(F)F)cc2Cl)C1)S(=O)(=O)c1cc(F)cc(C(F)(F)F)c1" ?
2.2

Quick one: CAv3.2 IC50 Ratio closed/inact. of "O=C(NC[C@H]1C[C@H](S(=O)(=O)c2cccc(OC(F)(F)F)c2)C1)c1ccc(C(F)(F)F)cc1" ?
2.5

====

molecular target: T-type calcium channel (Homo sapiens); assay: T-type channel blocking, FLIPR data (Table 6); details: CAv3.1
Record form. Attribute: IC50. Fill in for each entry.
Use µM as the unit, but write only the number.

Quick one: IC50 of CC(C)(C1CC(CNC(=O)c2ccc(F)c(Cl)c2)C1)S(=O)(=O)c1cccc(C(F)(F)F)c1 (stereo not shown) [Compound 618] ?
2.47

Quick one: IC50 of CC(C)([C@H]1C[C@H](C(=O)Nc2ccc(C(F)(F)F)cc2)C1)S(=O)(=O)c1cccc(C(F)(F)F)c1 [Compound 765] ?
2.01

Quick one: IC50 of CC(C)([C@H]1C[C@@H](NS(=O)(=O)c2ccc(OC(F)(F)F)cc2)C1)S(=O)(=O)c1cccc(C(F)(F)F)c1 [Compound 630] ?
2.33

Quick one: IC50 of CC(C)([C@H]1C[C@H](C(=O)NCc2ccc(Oc3ccccc3)cc2)C1)S(=O)(=O)c1cccc(C(F)(F)F)c1 [Compound 764] ?
0.78

Quick one: IC50 of CC(C)([C@H]1C[C@H](NS(=O)(=O)c2ccc(C(F)(F)F)cc2)C1)S(=O)(=O)c1cccc(C(F)(F)F)c1 [Compound 663] ?
2.01

====

target: T-type calcium channel (Homo sapiens); assay: T-type channel blocking, FLIPR data (Table 6); type: cell-based; settings: CAv3.2, closed state, read-out: CAv3.2 IC50 Closed
value kind: pIC50
// pIC50: -log10(molar conc.)

Quick one: pIC50 of Cn1nc(C(F)(F)F)cc1C(=O)N[C@H]1C[C@H](CC(C)(C)S(=O)(=O)c2cccc(C(F)(F)F)c2)C1 [Compound 725] ?
5.64

Quick one: pIC50 of CC(C)([C@H]1C[C@H](NC(=O)c2cc(C(F)(F)F)n[nH]2)C1)S(=O)(=O)c1cc(F)cc(C(F)(F)F)c1 [Compound 594] ?
5.03

Quick one: pIC50 of CC(C)([C@H]1C[C@@H](NC(=O)c2cc(C(F)(F)F)n[nH]2)C1)S(=O)(=O)c1cc(F)cc(C(F)(F)F)c1 [Compound 587] ?
5.18

Quick one: pIC50 of O=S(=O)(c1cc(F)cc(C(F)(F)F)c1)[C@H]1C[C@@H](CNc2ccnc(C(F)(F)F)n2)C1 [Compound 651] ?
5.19

Quick one: pIC50 of CC(C)([C@H]1C[C@@H](CNC(=O)c2ccnc(C(F)(F)F)c2)C1)S(=O)(=O)c1cccc(C(F)(F)F)c1 [Compound 687] ?
5.78

Quick one: pIC50 of O=C(NC[C@H]1C[C@H](S(=O)(=O)c2cc(F)cc(C(F)(F)F)c2)C1)c1ccc(Cl)cn1 [Compound 702] ?
5.12

Quick one: pIC50 of CC(C)([C@H]1C[C@@H](NC(=O)c2ccc(C(F)(F)F)cc2)C1)S(=O)(=O)c1cccc(C(F)(F)F)c1 [Compound 581] ?
5.51

Quick one: pIC50 of CC(C)([C@H]1C[C@H](C(=O)Nc2ccc(C(F)(F)F)cn2)C1)S(=O)(=O)c1cccc(C(F)(F)F)c1 [Compound 766] ?
5.38

Quick one: pIC50 of CC(C)([C@H]1C[C@H](NC(=O)c2ccc(Cl)cn2)C1)S(=O)(=O)c1cccc(C(F)(F)F)c1 [Compound 673] ?
5.27

Quick one: pIC50 of CC(C)(C1CC(CNC(=O)c2ccc(Cl)c(OC(F)(F)F)c2)C1)S(=O)(=O)c1cccc(C(F)(F)F)c1 (stereo not drawn) [Compound 621] ?
5.82

Quick one: pIC50 of CC(C)([C@H]1C[C@@H](CNc2ccnc(C(F)(F)F)n2)C1)S(=O)(=O)c1cccc(C(F)(F)F)c1 [Compound 691] ?
5.13

Quick one: pIC50 of CC(C)([C@H]1C[C@H](NS(=O)(=O)c2ccc(F)c(Cl)c2)C1)S(=O)(=O)c1cc(F)cc(C(F)(F)F)c1 [Compound 606] ?
5.07

Quick one: pIC50 of O=C(NC[C@H]1C[C@H](S(=O)(=O)c2cc(F)cc(C(F)(F)F)c2)C1)c1ccc(C(F)(F)F)cc1 [Compound 703] ?
5.38

Quick one: pIC50 of CC(C)(C[C@H]1C[C@H](NC(=O)c2ccc(C(F)(F)F)cc2)C1)S(=O)(=O)c1cccc(C(F)(F)F)c1 [Compound 719] ?
6.14

Quick one: pIC50 of CC(C)([C@H]1C[C@@H](C(=O)Nc2ccc(C(F)(F)F)cc2)C1)S(=O)(=O)c1cccc(C(F)(F)F)c1 [Compound 756] ?
5.45

Quick one: pIC50 of CC(C)([C@H]1C[C@H](NS(=O)(=O)c2ccc(C(F)(F)F)cc2)C1)S(=O)(=O)c1cccc(C(F)(F)F)c1 [Compound 663] ?
5.53

Quick one: pIC50 of CC(C)([C@H]1C[C@H](NS(=O)(=O)c2ccc(C(F)(F)F)cc2Cl)C1)S(=O)(=O)c1cccc(C(F)(F)F)c1 [Compound 666] ?
5.67

Quick one: pIC50 of Cn1nc(C(F)(F)F)cc1NC(=O)[C@H]1C[C@H](C(C)(C)S(=O)(=O)c2cccc(C(F)(F)F)c2)C1 [Compound 769] ?
5.27

Quick one: pIC50 of CC(C)([C@H]1C[C@H](NC(=O)c2ccc(C(F)(F)F)nc2)C1)S(=O)(=O)c1cccc(C(F)(F)F)c1 [Compound 675] ?
5.11

Quick one: pIC50 of CC(C)([C@H]1C[C@H](NC(=O)c2ccc(F)c(Cl)c2)C1)S(=O)(=O)c1cccc(OC(F)(F)F)c1 [Compound 634] ?
6.15
